- System: L. donovani intracellular amastigotes in B10R cells
- TEST_METHOD_NOTES: UCSD L. donovani infection assay (Assay Conditions D)
- Assay type: cell-based
- DETAILS: Leishmania donovani
Give pIC50 for every item shown.
Give bare numbers, as −log10 of the molar value.

[[record]]
molecule = "COc1ccc(N2C(=O)c3[nH]nc(CC(C)C)c3C2c2ccccc2OC)cn1 (centres unmarked)"
quantity_name = "pIC50"
obs_value = 5.96

[[record]]
molecule = "COc1ccc(N2C(=O)c3[nH]nc(CC(C)C)c3C2c2ccsc2)cc1 (centres unmarked)"
quantity_name = "pIC50"
obs_value = 5.40

[[record]]
molecule = "CC(C)Cc1n[nH]c2c1C(c1ccc(F)cc1)N(c1ccc(N(C)C)cc1)C2=O (centres unmarked)"
quantity_name = "pIC50"
obs_value = 6.70

[[record]]
molecule = "COc1cc(F)ccc1C1c2c(CC(C)C)n[nH]c2C(=O)N1c1ccc(Br)cc1 (centres unmarked)"
quantity_name = "pIC50"
obs_value = 7.00

[[record]]
molecule = "COc1ccc(N2C(=O)c3[nH]nc(CC(C)C)c3C2c2ccccc2OC)cc1F (centres unmarked)"
quantity_name = "pIC50"
obs_value = 6.40


Consider the following items and state reported pIC50 for each.
1. COc1ccc(N2C(=O)c3[nH]nc(CC(C)C)c3C2c2ccccc2)cc1 (centres unmarked)
2. COc1ccccc1C1c2c(CC(C)C)n[nH]c2C(=O)N1c1ccc(Br)cc1 (centres unmarked)
3. CC(C)Cc1n[nH]c2c1C(c1ccccc1Br)N(c1ccc(Br)cc1)C2=O (centres unmarked)

Reply:
1. 5.96
2. 6.70
3. 6.40

This collection of values is drawn from patent US20230381142A1.
